# test system: T1, CRBN, Q96SW2;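 note: pooled lentiviral library of zinc finger degron-EGFP fusions in mCherry-positive Jurkat cells, FACS-sorted after compound exposure, with degron abundance counted by next-generation sequencing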
# T1 chain: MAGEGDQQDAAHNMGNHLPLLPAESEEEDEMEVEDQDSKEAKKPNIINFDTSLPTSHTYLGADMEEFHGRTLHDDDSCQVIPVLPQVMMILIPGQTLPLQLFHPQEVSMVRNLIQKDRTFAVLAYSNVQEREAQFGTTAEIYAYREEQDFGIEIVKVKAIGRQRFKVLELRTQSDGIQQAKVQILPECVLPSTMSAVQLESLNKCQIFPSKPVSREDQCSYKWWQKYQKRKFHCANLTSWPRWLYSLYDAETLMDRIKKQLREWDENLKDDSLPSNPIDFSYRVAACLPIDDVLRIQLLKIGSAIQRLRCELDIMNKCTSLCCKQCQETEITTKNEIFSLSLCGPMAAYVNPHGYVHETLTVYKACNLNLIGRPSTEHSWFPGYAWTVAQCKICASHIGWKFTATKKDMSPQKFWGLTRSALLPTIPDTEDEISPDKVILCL
# measurement notes: log2 fold change of degron read counts, EGFP-low vs EGFP+ sorted cells (limma voom), compound-induced degradation; higher = more compound-induced degradation of the degron-EGFP fusion; degrons are variants of IKZF1/3 zinc finger 2; compound dose not given here
# reported conditions: Jurkat; 18 h; compound: thalidomide
In all, about 8,300 sequences were measured (“log2 fold change of degron read counts, EGFP-low vs EGFP+ sorted cells (limma voom), compound-induced degradation”: median about -1.1, highest 2% from about 3.2 on). Only a selection was taken, and the highest values are over-represented in it overall.
measurement type: log2 fold change of degron read counts

[[record]]
sequence_input = "FECPVCGASFTQKGNLLRHIKL [46F_47E_49P_50V_52G_53A_54S_55F_67L_, Q9UKT9]"
readout_number = 2.9

[[record]]
sequence_input = "FGCPVCGASFTQKGNLLRHIKL [46F_47G_49P_50V_52G_53A_54S_55F_67L_, Q9UKT9]"
readout_number = 1.08

[[record]]
sequence_input = "FKCPVCGASFTQKGNLLRHIKL [46F_47K_49P_50V_52G_53A_54S_55F_67L_, Q9UKT9]"
readout_number = 0.152

[[record]]
sequence_input = "FVCPVCGASFTQKGNLLRHIKL [46F_47V_49P_50V_52G_53A_54S_55F_67L_, Q9UKT9]"
readout_number = 2.79

[[record]]
sequence_input = "FVCEICGRYFTQKGNLLRHIKL [46F_47V_49E_50I_52G_53R_54Y_55F_67L_, Q9UKT9]"
readout_number = -0.136

[[record]]
sequence_input = "FMCEICGRCFTQKGNLLRHIKL [46F_47M_49E_50I_52G_53R_54C_55F_67L_, Q9UKT9]"
readout_number = -1.79

[[record]]
sequence_input = "LWCNQCGFLCTQKGNLLRHIKL [46L_47W_49N_50Q_52G_53F_54L_55C_67L_, Q9UKT9]"
readout_number = -0.106

